Biological target: PIKfyve (Homo sapiens)
Construct: T7 phage fusion (kinase-tagged phage) or DNA tag for qPCR
Assay: Kinase binding assay (kinase-tagged T7 phage, affinity beads, qPCR readout), Kd determination
Settings: 11-point 3-fold dilution series
pKd: −log10 of the molar value.
Measured pKd values are reported for all entries that follow.

Some solved entries appear below for comparison.
Cc1cccc(/C=N/Nc2nc3c(c(N4CCOCC4)n2)CN(c2ncccn2)C3)c1 :: 8.30 to 9.00
Cc1cccc(-c2cc(O)n(-c3nc4c(c(N5CCOCC5)n3)CN(S(=O)(=O)c3c(C)noc3C)C4)n2)c1 :: 5.70 to 7.00
Cc1cccc(/C=N/Nc2nc3c(c(N4CCOC[C@H]4C)n2)CN(c2ncccn2)C3)c1 :: 8.00 to 8.30
Cc1cccc(/C=N/Nc2nc3c(c(N4CCOCC4)n2)CN(Cc2cccnc2)C3)c1 :: 8.30 to 9.00
Cc1cccc(/C=N/Nc2nc3c(c(N4CCOCC4)n2)CCN(S(=O)(=O)c2c(C)n[nH]c2C)C3)c1 :: 8.00 to 8.30
O=C(Nc1cccnc1)N1Cc2nc(N/N=C/c3cccc(Cl)c3)nc(N3CCOCC3)c2C1 :: 7.22 to 8.00
Cc1cccc(/C=N/Nc2nc3c(c(N4CCOCC4)n2)CN(Cc2ccccn2)C3)c1 :: 7.22 to 8.00
O=C(Nc1cccnc1)N1Cc2nc(N/N=C/c3cccc(O)c3)nc(N3CCOCC3)c2C1 :: 7.00 to 7.22
Cc1cccc(/C=N/Nc2nc3c(c(N4CCOCC4)n2)CN(C(=O)Nc2cccnc2)C3)c1 :: 8.30 to 9.00
COc1cccc(-c2cc(O)n(-c3nc(N4CCOCC4)c4sc(-c5ccncc5)cc4n3)n2)c1 :: 8.00 to 8.30

Consider the record given below.
q: What does the data say about its pKd? Entry: "Cc1cccc(/C=N/Nc2nc3c(c(N4CCOCC4)n2)CN(S(=O)(=O)c2cccnc2)C3)c1"
a: 8.30 to 9.00

====

Molecular target: PIKfyve (Homo sapiens, UniProt Q9Y2I7)
Construct: T7 phage fusion (kinase-tagged phage) or DNA tag for qPCR
Sequence (Q9Y2I7 whole entry, the tested form may be a part): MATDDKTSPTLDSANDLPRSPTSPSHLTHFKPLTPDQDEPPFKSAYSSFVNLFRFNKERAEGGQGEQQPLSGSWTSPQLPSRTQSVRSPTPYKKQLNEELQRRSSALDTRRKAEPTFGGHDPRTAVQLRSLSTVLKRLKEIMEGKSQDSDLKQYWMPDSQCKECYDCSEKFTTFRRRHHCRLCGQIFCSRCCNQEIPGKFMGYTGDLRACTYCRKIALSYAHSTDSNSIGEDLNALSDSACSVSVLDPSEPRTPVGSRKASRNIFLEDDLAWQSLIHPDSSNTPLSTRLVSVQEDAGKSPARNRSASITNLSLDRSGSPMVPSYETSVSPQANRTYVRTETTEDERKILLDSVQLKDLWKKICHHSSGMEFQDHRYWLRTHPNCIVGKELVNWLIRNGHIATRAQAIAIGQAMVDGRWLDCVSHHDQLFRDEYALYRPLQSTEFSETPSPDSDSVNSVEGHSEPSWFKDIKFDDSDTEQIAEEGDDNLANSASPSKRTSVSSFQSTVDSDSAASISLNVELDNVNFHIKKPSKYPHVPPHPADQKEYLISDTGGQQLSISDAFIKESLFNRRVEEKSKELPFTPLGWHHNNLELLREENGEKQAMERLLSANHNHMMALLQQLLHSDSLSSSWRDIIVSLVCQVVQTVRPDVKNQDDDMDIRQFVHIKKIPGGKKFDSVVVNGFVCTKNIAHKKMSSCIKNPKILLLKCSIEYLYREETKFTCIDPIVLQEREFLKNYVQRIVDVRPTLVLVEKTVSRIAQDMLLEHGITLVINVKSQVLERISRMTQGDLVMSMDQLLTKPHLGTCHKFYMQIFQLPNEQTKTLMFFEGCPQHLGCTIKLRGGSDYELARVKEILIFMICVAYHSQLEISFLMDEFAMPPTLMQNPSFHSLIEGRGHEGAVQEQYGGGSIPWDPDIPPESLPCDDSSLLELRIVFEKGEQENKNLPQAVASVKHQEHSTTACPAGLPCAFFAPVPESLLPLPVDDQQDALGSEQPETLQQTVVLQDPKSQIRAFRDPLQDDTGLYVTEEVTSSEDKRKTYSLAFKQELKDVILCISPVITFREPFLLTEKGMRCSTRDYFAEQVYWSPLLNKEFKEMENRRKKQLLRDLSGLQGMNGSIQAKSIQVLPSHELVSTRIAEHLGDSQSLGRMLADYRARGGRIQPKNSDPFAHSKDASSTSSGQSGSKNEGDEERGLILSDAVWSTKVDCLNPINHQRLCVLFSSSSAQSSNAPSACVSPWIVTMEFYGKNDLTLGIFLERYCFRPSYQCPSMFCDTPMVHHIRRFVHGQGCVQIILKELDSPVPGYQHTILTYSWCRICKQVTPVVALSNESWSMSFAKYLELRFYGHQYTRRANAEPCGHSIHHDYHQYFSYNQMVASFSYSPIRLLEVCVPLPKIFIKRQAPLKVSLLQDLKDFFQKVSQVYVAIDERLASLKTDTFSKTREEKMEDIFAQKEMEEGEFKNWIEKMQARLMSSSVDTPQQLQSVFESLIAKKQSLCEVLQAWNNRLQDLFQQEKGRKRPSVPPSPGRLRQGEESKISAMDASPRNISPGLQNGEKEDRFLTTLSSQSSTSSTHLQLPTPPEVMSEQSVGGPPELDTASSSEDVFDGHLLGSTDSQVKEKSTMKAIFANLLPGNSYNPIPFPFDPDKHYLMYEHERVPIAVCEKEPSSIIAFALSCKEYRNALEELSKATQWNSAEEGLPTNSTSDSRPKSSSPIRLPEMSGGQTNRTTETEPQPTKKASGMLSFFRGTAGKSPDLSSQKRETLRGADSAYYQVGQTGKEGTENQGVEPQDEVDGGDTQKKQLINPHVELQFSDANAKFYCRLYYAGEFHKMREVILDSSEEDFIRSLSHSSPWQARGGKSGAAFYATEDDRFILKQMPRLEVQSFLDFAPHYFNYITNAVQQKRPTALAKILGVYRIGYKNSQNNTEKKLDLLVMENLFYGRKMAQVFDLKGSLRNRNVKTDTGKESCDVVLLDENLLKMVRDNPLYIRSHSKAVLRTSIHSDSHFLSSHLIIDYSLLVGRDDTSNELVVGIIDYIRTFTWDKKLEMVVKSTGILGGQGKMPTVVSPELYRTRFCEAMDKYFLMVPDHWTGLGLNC
Test: Kinase binding assay (kinase-tagged T7 phage, affinity beads, qPCR readout), Kd determination
Conditions: 11-point 3-fold dilution series
Items are presented alongside their recorded Kd.

Known Kd results, listed for orientation:
Cc1cccc(/C=N/Nc2nc3c(c(N4CCOCC4)n2)CN(S(=O)(=O)c2cccc(C(=O)O)c2)C3)c1 [Example 16] :: 1 to 5 nM
Cc1cccc(/C=N/Nc2nc3c(c(N4CCOCC4)n2)CN(S(=O)(=O)N(C)C)C3)c1 [Example 21] :: 1 to 5 nM
Cc1cccc(/C=N/Nc2nc3c(c(N4CCOC[C@@H]4C)n2)CN(c2ncccn2)C3)c1 [Example 25] :: 1 to 5 nM
Cc1cccc(/C=N/Nc2nc3c(c(N4CCOCC4)n2)CN(C(=O)NC2CCC2)C3)c1 [Example 5] :: 1 to 5 nM
Cc1cccc(/C=N/Nc2nc3c(c(N4CCOCC4)n2)CN(C(=O)NC2CCCC2)C3)c1 [Example 4] :: 1 to 5 nM

q: So what does the record say about Kd for Cc1cccc(/C=N/Nc2nc3c(c(N4CCOCC4)n2)CN(C(=O)Nc2ccc(F)cc2)C3)c1 [Example 2] ?
a: 5 to 10 nM

q: Which Kd value is on record for Cc1cccc(/C=N/Nc2cc(N3CCOCC3)n3nc(C(=O)NC4CC(F)(F)C4)cc3n2)c1 [Example 42] ?
a: 1 to 5 nM

q: Consider the molecule shown here: O=C(Nc1cccnc1)N1Cc2nc(N/N=C/c3cccc(C(F)(F)F)c3)nc(N3CCOCC3)c2C1 [Example 8] What is its recorded Kd?
a: 100 to 2000 nM

q: Which Kd value belongs to Cc1cccc(-c2cc(O)n(-c3nc4c(c(N5CCOCC5)n3)CN(C(=O)Nc3cccnc3)C4)n2)c1 [Example 38] ?
a: 5 to 10 nM

q: Form field: reported Kd of Cc1cccc(/C=N/Nc2nc3c(c(N4CCOCC4)n2)CN(C(=O)NC2COC2)C3)c1 [Example 27]
a: 1 to 5 nM

q: Kd lookup needed for Cc1cccc(/C=N/Nc2nc3c(c(N4CCOCC4)n2)CN(S(=O)(=O)c2cn(C)cn2)C3)c1 [Example 15] , thanks.
a: ≤ 1 nM

q: Suppose we examine the molecule Cc1cccc(/C=N/Nc2nc3c(c(N4CCOCC4)n2)CN(C(=O)NC2CNC2)C3)c1 [Example 28] ; what Kd value has been reported?
a: 5 to 10 nM

q: // returns reported Kd for input Cc1cccc(/C=N/Nc2nc3c(c(N4CCOCC4)n2)CN(S(=O)(=O)c2ccc(C(=O)O)cc2)C3)c1 [Example 17]
a: 1 to 5 nM

q: Query: Kd; subject: Cc1cccc(/C=N/Nc2cc(N3CCOCC3)n3nc(C(=O)NC4COC4)cc3n2)c1 [Example 41]
a: ≤ 1 nM

q: GET /values?readout=Kd&item= Cc1cccc(/C=N/Nc2nc3c(c(N4CCOCC4)n2)CN(S(=O)(=O)c2c(C)noc2C)C3)c1 [Example 22]
a: 1 to 5 nM

q: What does the record list as Kd for Cc1cccc(-c2cc(O)n(-c3nc(N4CCOCC4)c4sc(-c5ccncc5)cc4n3)n2)c1 [Example 33] ?
a: ≤ 1 nM

q: For Cc1cccc(/C=N/Nc2nc3c(c(N4CCOCC4)n2)CN(S(=O)(=O)c2c(C)n[nH]c2C)C3)c1 [Example 20] , what is its reported Kd?
a: ≤ 1 nM

q: Please give the measured Kd for this molecule: CCNC(=O)N1Cc2nc(N/N=C/c3cccc(C)c3)nc(N3CCOCC3)c2C1 [Example 1]
a: 5 to 10 nM

q: Dear colleague, I am looking for the recorded Kd of the following molecule: Cc1cccc(/C=N/Nc2nc3c(c(N4CCOCC4)n2)CN(c2ccncn2)C3)c1 [Example 24]
a: 1 to 5 nM
